Reported Kb values for the following compounds.
# Measured Target: human CGRP receptor (SK-N-MC cells) (Homo sapiens, UniProt O60894+Q16602)
# Construct: SK-N-MC cells that endogenously express the human CGRP receptor; endogenous in cells; host or cells: SK-N-MC cells
# Sequence (Q16602 23-461): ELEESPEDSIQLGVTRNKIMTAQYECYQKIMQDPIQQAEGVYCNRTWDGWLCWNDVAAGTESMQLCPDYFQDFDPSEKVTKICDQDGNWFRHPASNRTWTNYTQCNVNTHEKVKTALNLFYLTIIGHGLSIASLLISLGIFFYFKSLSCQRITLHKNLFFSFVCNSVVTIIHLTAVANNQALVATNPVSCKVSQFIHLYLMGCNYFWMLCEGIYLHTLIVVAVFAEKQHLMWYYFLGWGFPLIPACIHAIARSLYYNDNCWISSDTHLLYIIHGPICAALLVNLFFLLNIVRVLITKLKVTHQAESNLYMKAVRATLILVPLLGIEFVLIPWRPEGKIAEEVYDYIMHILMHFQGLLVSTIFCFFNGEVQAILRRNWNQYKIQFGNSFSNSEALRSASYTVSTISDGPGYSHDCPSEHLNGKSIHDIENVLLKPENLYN
# Sequence (O60894 27-148): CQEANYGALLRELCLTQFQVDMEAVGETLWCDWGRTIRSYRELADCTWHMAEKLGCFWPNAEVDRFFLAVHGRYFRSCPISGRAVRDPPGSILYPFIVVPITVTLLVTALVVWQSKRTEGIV
# Assay Text: Schild analysis of CGRP stimulated cAMP production
# Assay type: cell-based
# Condition Set: Schild analysis, dissociation constant of the antagonist; read-out: Kb
The reply should contain only the number, in nM.

Problem: Which measured Kb value corresponds to Cc1cc(CC(NC(=O)N2CCC(N3Cc4ccccc4NC3=O)CC2)C(=O)N(C)C)cc2cn[nH]c12 (racemic) ?
Result: 1

Problem: Now consider Cc1cc(CC(NC(=O)N2CCC(N3Cc4ccccc4NC3=O)CC2)C(=O)N2CCN(c3ccncc3)CC2)cc2cn[nH]c12 (racemic) .
Result: 0.018

Problem: Similarly, Cc1cc(CC(CC(=O)N2CCC(N3Cc4ccccc4NC3=O)CC2)C(=O)N2CCC(N3CCCCC3)CC2)cc2cn[nH]c12 (racemic) ?
Result: 0.016

Problem: And for Cc1cc(CC(NC(=O)N2CCC(N3Cc4ccccc4NC3=O)CC2)C(=O)N2CCCCC2)cc2cn[nH]c12 (racemic) ?
Result: 1.1

Problem: And the next one, O=C(NC(Cc1ccc2[nH]ccc2c1)C(=O)N1CCC(N2CCCCC2)CC1)N1CCC(N2Cc3ccccc3NC2=O)CC1 (racemic) ?
Result: 3

----------
# Measured Target: CGRP receptor (SK-N-MC cell membranes) (Homo sapiens, UniProt O60894+Q16602)
# Construct: endogenous in cells; host or cells: SK-N-MC cells (membrane homogenate)
# Sequence (Q16602 23-461): as the sequence (Q16602 23-461) above
# Sequence (O60894 27-148): as the sequence (O60894 27-148) above
# Assay Text: CGRP Binding Assay ([125I]-CGRP radioligand binding, SK-N-MC homogenate)
# Condition Set: displacement of [125I]-CGRP, SK-N-MC homogenate; read-out: CGRP binding IC50
pIC50: −log10 of the molar value.
Observable: pIC50

Cc1cc(CC(NC(=O)N2CCC(N3Cc4ccccc4NC3=O)CC2)C(=O)OC2CCCCC2)cc2cn[nH]c12 (stereo not drawn) [Example 41a] = 7.00 to 8.00
O=C(N[C@@H](CC(=O)N1CCC(N2Cc3ccccc3NC2=O)CC1)C(=O)N1CCC(N2CCCCC2)CC1)c1sc2ccccc2c1Cl = 6.00 to 7.00

Problem: Which measured pIC50 value corresponds to O=C(N[C@@H](CC(=O)N1CCC(N2Cc3ccccc3NC2=O)CC1)C(=O)N1CCC(N2CCCCC2)CC1)c1cc[nH]n1 ?
Result: < 6.00

----------
Catalogue of IC50 values
# Measured Target: CGRP receptor (SK-N-MC cell membranes) (Homo sapiens, UniProt O60894+Q16602)
# Construct: endogenous in cells; host or cells: SK-N-MC cells (membrane homogenate)
# Assay Text: CGRP Binding Assay ([125I]-CGRP radioligand binding, SK-N-MC homogenate)
# Condition Set: displacement of [125I]-CGRP, SK-N-MC homogenate; read-out: CGRP binding IC50

Problem: Find the recorded IC50 belonging to O=C(N[C@@H](CC(=O)N1CCC(N2Cc3ccccc3NC2=O)CC1)C(=O)N1CCC(N2CCCCC2)CC1)c1cccs1 and report it.
Result: 100 to 1000 nM

Problem: Would you mind doing CC1(C)CN(CC(NC(=O)N2CCC(N3Cc4ccccc4NC3=O)CC2)C(=O)N2CCC(N3CCCCC3)CC2)Cc2cn[nH]c21 (racemic) as well?
Result: < 10 nM

Problem: Now consider O=C(Nc1ccc(Cl)cc1Cl)N[C@@H](CC(=O)N1CCC(N2Cc3ccccc3NC2=O)CC1)C(=O)N1CCC(N2CCCCC2)CC1 and answer again.
Result: 10 to 100 nM

Problem: Okay, and COc1ccc(NC(=O)N[C@@H](CC(=O)N2CCC(N3Cc4ccccc4NC3=O)CC2)C(=O)N2CCC(N3CCCCC3)CC2)c(OC)c1 ?
Result: 100 to 1000 nM

Problem: # iterate: Cc1cc(CC(NC(=O)N2CCC(N3Cc4ccccc4NC3=O)CC2)C(=O)OC2CCN(C)CC2)cc2cn[nH]c12 (stereo not shown) [Example 41c]
Result: < 10 nM

Problem: How about this compound: Cc1ccc(F)cc1NC(=O)N[C@@H](CC(=O)N1CCC(N2Cc3ccccc3NC2=O)CC1)C(=O)N1CCC(N2CCCCC2)CC1
Result: 100 to 1000 nM

Problem: Another compound: COC(=O)[C@H](Cc1ccccc1)NC(=O)N[C@@H](CC(=O)N1CCC(N2Cc3ccccc3NC2=O)CC1)C(=O)N1CCC(N2CCCCC2)CC1
Result: 100 to 1000 nM

----------
# Measured Target: CGRP receptor (SK-N-MC cell membranes) (Homo sapiens, UniProt O60894+Q16602)
# Construct: endogenous in cells; host or cells: SK-N-MC cells (membrane homogenate)
# Assay Text: CGRP Binding Assay ([125I]-CGRP radioligand binding, SK-N-MC homogenate)
# Condition Set: displacement of [125I]-CGRP, SK-N-MC homogenate; read-out: CGRP binding IC50
Observable: IC50

Worked cases, answers included:
O=C(Nc1ccc(C(F)(F)F)cc1)N[C@@H](CC(=O)N1CCC(N2Cc3ccccc3NC2=O)CC1)C(=O)N1CCC(N2CCCCC2)CC1 = 100 to 1000 nM
O=C(COc1ccc(Cl)cc1)N[C@@H](CC(=O)N1CCC(N2Cc3ccccc3NC2=O)CC1)C(=O)N1CCC(N2CCCCC2)CC1 = 100 to 1000 nM
O=C(C[C@H](Nc1cc(Cl)ncn1)C(=O)N1CCC(N2CCCCC2)CC1)N1CCC(N2Cc3ccccc3NC2=O)CC1 = 100 to 1000 nM
O=C(Nc1cccc2ccccc12)N[C@@H](CC(=O)N1CCC(N2Cc3ccccc3NC2=O)CC1)C(=O)N1CCC(N2CCCCC2)CC1 = 100 to 1000 nM
Cc1cc(CC(CC(=O)N2CCC(N3Cc4ccccc4NC3=O)CC2)C(=O)N2CCC(C)CC2)cc2cn[nH]c12 (racemic) = < 10 nM
CCc1cccc(NC(=O)N[C@@H](CC(=O)N2CCC(N3Cc4ccccc4NC3=O)CC2)C(=O)N2CCC(N3CCCCC3)CC2)c1 = 100 to 1000 nM
O=C(NC(Cn1ccc(OCc2ccccc2)cc1=O)C(=O)N1CCC(N2CCCCC2)CC1)N1CCC(N2Cc3ccccc3NC2=O)CC1 (racemic) = > 1000 nM
COc1ccc(OC)c(NC(=O)N[C@@H](CC(=O)N2CCC(N3Cc4ccccc4NC3=O)CC2)C(=O)N2CCC(N3CCCCC3)CC2)c1 = 100 to 1000 nM
Cc1cc(CC(NC(=O)N2CCC3(CC2)N=C(c2ccccc2)NC3=O)C(=O)N2CCC(N3CCCCC3)CC2)cc2cn[nH]c12 (racemic) = < 10 nM
O=C(NC(Cc1ccc2[nH]ncc2c1)C(=O)N1CCC2(CC1)OCCO2)N1CCC(N2Cc3ccccc3NC2=O)CC1 (racemic) = 10 to 100 nM

Problem: Looking for the measured IC50 of COc1ccc(C(=O)N[C@@H](CC(=O)N2CCC(N3Cc4ccccc4NC3=O)CC2)C(=O)N2CCC(N3CCCCC3)CC2)cc1 , can you help?
Result: > 1000 nM

----------
Items are presented alongside their recorded IC50.
# Measured Target: human CGRP receptor (SK-N-MC cells) (Homo sapiens, UniProt O60894+Q16602)
# Construct: SK-N-MC cells that endogenously express the human CGRP receptor; endogenous in cells; host or cells: SK-N-MC cells
# Assay Text: Cyclic AMP Assay, functional antagonism of CGRP-induced cyclic AMP formation
# Assay type: cell-based
# Condition Set: SK-N-MC cells, 0.3 nM CGRP; read-out: cAMP Function IC50

The examples below pair each entry with its known result.
Cc1cc(CC(NC(=O)N2CCC(N3Cc4ccccc4NC3=O)CC2)C(=O)O)cc2cn[nH]c12 (racemic) [Example 15] = 0.1 to 1 µM
Cc1cc(CC(NC(=O)N2CCC(N3Cc4ccccc4NC3=O)CC2)C(=O)N2CCN(c3ccccn3)CC2)cc2cn[nH]c12 (racemic) [Example 22] = < 0.01 µM
Cc1cc(CC(CC(=O)N2CCC(N3Cc4ccccc4NC3=O)CC2)C(=O)N2CCC(C)CC2)cc2cn[nH]c12 (racemic) [Example 74] = < 0.01 µM
Cc1cc(CC(NC(=O)N2CCC3(CC2)OC(=O)Nc2ccccc23)C(=O)N(C)C)cc2cn[nH]c12 (racemic) [Example 27] = 0.1 to 1 µM

Problem: Could you share which IC50 value was measured for CC(C)CN1CCN(C(=O)C(Cc2ccc3[nH]ccc3c2)NC(=O)N2CCC(n3c(=O)[nH]c4ccccc43)CC2)CC1 (racemic) [Example 7] ?
Result: 0.1 to 1 µM

Problem: Quick one: Cc1cc(CC(NC(=O)N2CCC(N3Cc4ccccc4NC3=O)CC2)C(=O)N(C)C)cc2cn[nH]c12 (racemic) [Example 18]
Result: 0.01 to 0.1 µM

Problem: Another: O=C(NC(Cc1ccc2[nH]ncc2c1)C(=O)N1CCC(N2Cc3ccccc3NC2=O)CC1)N1CCC(N2Cc3ccccc3NC2=O)CC1 (centres unmarked) [Example 37]
Result: 0.01 to 0.1 µM

Problem: # iterate: Cc1cc(CC(NC(=O)N2CCC3(CC2)N=C(c2ccccc2)NC3=O)C(=O)N(C)C)cc2cn[nH]c12 (racemic) [Example 36]
Result: 0.01 to 0.1 µM

Problem: How about this molecule: O=C(C[C@H](Nc1cc(Cl)ccc1[N+](=O)[O-])C(=O)N1CCC(N2CCCCC2)CC1)N1CCC(N2Cc3ccccc3NC2=O)CC1 [Example 87]
Result: 0.01 to 0.1 µM

Problem: Also need O=C1CC2(CCN(C(=O)N[C@H](Cc3csc4ccccc34)C(=O)N3CCC(N4CCCCC4)CC3)CC2)c2ccccc2N1 [Example 62] , thanks.
Result: 0.01 to 0.1 µM

Problem: Try the molecule Cc1cc(CC(NC(=O)N2CCC(N3Cc4ccccc4NC3=O)CC2)C(=O)N2CCN(c3ccncc3)CC2)cc2cn[nH]c12 (racemic) [Example 21]
Result: < 0.01 µM

Problem: Try CC1(C)CN(CC(NC(=O)N2CCC(N3Cc4ccccc4NC3=O)CC2)C(=O)N2CCC(N3CCCCC3)CC2)Cc2cn[nH]c21 (racemic) [Example 56] next.
Result: < 0.01 µM

Problem: Please give the result for COC(=O)C(Cc1cc(C)c2[nH]ncc2c1)NC(=O)N1CCC(N2Cc3ccccc3NC2=O)CC1 (racemic) [Example 12] too.
Result: 0.1 to 1 µM

Problem: Cc1cc(CC(CC(=O)N2CCC(N3Cc4ccccc4NC3=O)CC2)C(=O)N2CCOCC2)cc2cn[nH]c12 (racemic) [Example 75] , same question.
Result: 0.01 to 0.1 µM

Each recorded value in this set is attributed to patent US7842808B2.
